The measurements presented in this section are drawn from patent EP4711372A1.

Documented AUC(0-t) across a set of compounds
assay: Pharmacokinetics in mice (oral gavage); assay type: in vivo; conditions: mouse, plasma, male CD-1 mice, 10 mg/kg
MEASURED PROPERTY: AUC(0-t) (ng·h/mL)

>>> reported_result("Cn1nc2cc(N3CC4CC4c4cc(C(=O)N5CCC(F)(F)CC5)cnc43)ccn2c1=O (centres unmarked) [compound I-3]")
35500
>>> reported_result("Cn1nc2cc(N3C[C@H]4C[C@H]4c4cc(C(=O)N5CCC(F)(F)CC5)cnc43)ccn2c1=O (single isomer, unassigned) [compound I-3B]")
33200

----------
experiment: Dynamic solubility test of crystal forms in H2O, SGF, FaSSIF and FeSSIF; format: physicochemical; settings: water; H2O, 24 hours, 37°C, loading 10 mg/mL; read-out: S: concentration of the compound represented by formula I-3B
MEASURED PROPERTY: solubility thermodynamic at 24 h (µg/mL)

>>> reported_result("Cn1nc2cc(N3C[C@H]4C[C@H]4c4cc(C(=O)N5CCC(F)(F)CC5)cnc43)ccn2c1=O")
900

----------
Test: Dynamic solubility test of crystal forms in H2O, SGF, FaSSIF and FeSSIF
Format: physicochemical
Details: FeSSIF, 24 hours, 37°C, loading 10 mg/mL; read-out: S: concentration of the compound represented by formula I-3B
Experimental: The purity test, dynamic solubility test, and stability test in the assay were performed using an ultra-performance liquid chromatograph (UPLC). After sampling at each time point, the samples were centrifuged (12,000 rpm, 2 minutes) and filtered (0.45 µm PTFE membrane), and the HPLC concentration and pH value of the filtrate were measured. The solid samples after centrifugation were tested for XRPD.
MEASURED PROPERTY: solubility thermodynamic at 24 h (µg/mL)

>>> reported_result("Cn1nc2cc(N3C[C@H]4C[C@H]4c4cc(C(=O)N5CCC(F)(F)CC5)cnc43)ccn2c1=O")
3900

----------
assay: Dynamic solubility test of crystal forms in H2O, SGF, FaSSIF and FeSSIF; format: physicochemical; conditions: simulated gastric fluid; SGF, 24 hours, 37°C, loading 10 mg/mL; read-out: S: concentration of the compound represented by formula I-3B
MEASURED PROPERTY: solubility thermodynamic at 24 h (µg/mL)

>>> reported_result("Cn1nc2cc(N3C[C@H]4C[C@H]4c4cc(C(=O)N5CCC(F)(F)CC5)cnc43)ccn2c1=O")
4700

----------
assay: Pharmacokinetics in mice (oral gavage); type: in vivo; conditions: mouse, plasma, male CD-1 mice, 10 mg/kg
MEASURED PROPERTY: Cmax (ng/mL)

>>> reported_result("Cn1nc2cc(N3CC4CC4c4cc(C(=O)N5CCC(F)(F)CC5)cnc43)ccn2c1=O (centres unmarked) [compound I-3]")
3710
>>> reported_result("Cn1nc2cc(N3C[C@H]4C[C@H]4c4cc(C(=O)N5CCC(F)(F)CC5)cnc43)ccn2c1=O (single isomer, unassigned) [compound I-3B]")
4480
